test system: SK-ES-1; test: relative viability vs DMSO control (72 h) (fraction); higher = more viable cells; conditions: 0.00051 µM
Structures can show the parent of a compound that is named as a salt.
Property: relative viability; scope: individual compounds
Please give the numeric answer without any surrounding text.

{"columns": ["Compound", "relative viability"],
 "data": [
  ["O=C(Nc1cnn2ccc(N3CCC[C@@H]3c3cc(F)ccc3F)nc12)N1CC[C@H](O)C1 [Larotrectinib]", 1.04],
  ["COc1cc2c(Oc3ccc4[nH]c(C)cc4c3F)ncnc2cc1OCCCN1CCCC1 [Cediranib]", 1.07],
  ["CN1CCC(COc2cnc(-c3cccc(Cn4nc(-c5cccc(C#N)c5)ccc4=O)c3)nc2)CC1 [Tepotinib]", 1.08],
  ["CC(=O)Nc1cccc(-n2c(=O)n(C3CC3)c(=O)c3c(Nc4ccc(I)cc4F)n(C)c(=O)c(C)c32)c1 [Trametinib]", 1.04],
  ["CN1CCN(c2ccc3nc(-c4c(N)c5c(F)cccc5[nH]c4=O)[nH]c3c2)CC1 [Dovitinib]", 1.07],
  ["COc1cccc2c1C(=O)c1c(O)c3c(c(O)c1C2=O)C[C@@](O)(C(=O)CO)C[C@@H]3O[C@H]1C[C@H](N)[C@H](O)[C@H](C)O1 [Doxorubicin Hydrochloride]", 1.05],
  ["C[C@@H](c1ccc2nccn2c1)n1nnc2ncc(-c3cnn(C)c3)nc21 [Volitinib]", 1.01],
  ["COc1cc2/c(=N/c3ccc(Br)cc3F)nc[nH]c2cc1OCC1CCN(C)CC1 [Vandetanib]", 0.992]
]}

Value (relative viability, SK-ES-1) for record COCc1c(-c2cc3cc(C)cc(OC)c3s2)c2c(N)ncnn2c1CN1CCNC(=O)C1 [Rogaratinib] = 1.03

GET /values?item= COc1cc2nccc(Oc3ccc(NC(=O)Nc4cc(C)on4)c(Cl)c3)c2cc1OC [Tivozanib] &system= SK-ES-1 returns relative viability: 1.02

---

tested on: RD; assay: relative viability vs DMSO control (72 h) (fraction); higher = more viable cells; conditions: 0.00152 µM
Reported metric: relative viability
A bare number is all that is needed in reply.

GET /value?item= CO[C@H]1C[C@@H]2CC[C@@H](C)[C@@](O)(O2)C(=O)C(=O)N2CCCC[C@H]2C(=O)O[C@H]([C@H](C)C[C@@H]2CC[C@@H](OP(C)(C)=O)[C@H](OC)C2)CC(=O)[C@H](C)/C=C(\C)[C@@H](O)[C@@H](OC)C(=O)[C@H](C)C[C@H](C)/C=C/C=C/C=C/1C &field=relative viability returns 0.921

Per the record, CC1(C)CNc2cc(NC(=O)c3cccnc3NCc3ccncc3)ccc21 has relative viability of 0.973

So for CC(C)(C)c1cc(NC(=O)Nc2ccc(-c3cn4c(n3)sc3cc(OCCN5CCOCC5)ccc34)cc2)no1 , the logged relative viability turned out to be 1.08

Looking up COc1cc2/c(=N/c3ccc(Br)cc3F)nc[nH]c2cc1OCC1CCN(C)CC1 , I found its relative viability recorded as 1.09

Data point: CC(C)NC(=O)C1CCC(n2c(NC(=O)c3ccc(F)cc3)nc3ccc(CN4CCC(C(C)(C)O)CC4)cc32)CC1 (stereo unspecified) ; relative viability = 1.08

Form: compound = C[C@@H]1COCCN1c1cc(-c2ccnn2C)c2ccnc(-c3ccn[nH]3)c2n1 ; relative viability = 1.09
